biological target: Thyrotropin receptor (Homo sapiens); experiment: qHTS assay to identify small molecule agonists of the thyroid stimulating hormone receptor (TSHR) signaling pathway (AID 1224843); conditions: TSHR-HEK293 cells, cAMP HTRF, agonist mode, 30 min; series mostly up to 92.4 µM; further: on the % scale 0 is the no-effect control and ±100 the full control effect; nearly all actives have a fitted effect of over 45% in size
Records with an inconclusive call do not appear. Active and inactive are the calls of the source. The call rests on the fitted dose curve.
assay_readout: activation

Observe how each entry below is paired with its result.
# molecule, activation
data = [
    ("N[C@H](C(=O)O)[C@@H](O)c1ccc(O)c(O)c1", "inactive"),
    ("[K+]", "inactive"),
    ("CC(C)C(=O)OC(=O)C(C)C", "inactive"),
    ("O=Cc1cccc(Br)c1", "inactive"),
    ("C[N+](C)(CCOc1ccccc1)Cc1cccs1", "inactive"),
    ("Cc1ccc(C(=O)c2ccc(CC(=O)O)n2C)cc1", "inactive"),
]

Param item = "O=CN(CCO)CCO" ; retrieve measured activation. inactive

Param item = "CCCCCC(=O)OCCc1ccccc1" ; retrieve measured activation. inactive

Param item = "CC(=O)c1cnccn1" ; retrieve measured activation. inactive

Param item = "CC(C)(C)c1ccc(-c2ccc(C(C)(C)C)cc2)cc1" ; retrieve measured activation. inactive

Param item = "CCCCOCCOC(=O)COc1cc(Cl)c(Cl)cc1Cl" ; retrieve measured activation. inactive

Param item = CCC(C)(CCCC(C)C)OC(C)=O (stereo not given) ; retrieve measured activation. inactive

* * *

assay: A CellTox Green Cytotoxicity Assay to monitor cytotoxicity in HEK293 cells - 24 hour (AID 1224875); conditions: CellTox Green fluorescence, hits give high values; series mostly up to 76.8 µM; further: on the % scale 0 is the no-effect control and ±100 the full control effect; nearly all actives have a fitted effect of over 45% in size
Results filed as inconclusive are left out. Calls of active or inactive are those of the source. The call rests on the fitted dose curve; in most records, active means well fitted activation curve with a large enough effect in the repeat runs; inconclusive means weak or mixed curves; inactive means flat fitted curve, though single readings scatter.
assay_readout: activity change

Observe how each entry below is paired with its result.
# compound, activity change
rows = [
    ("C[N+]1(C)[C@@H]2CC(OC(=O)[C@H](CO)c3ccccc3)C[C@H]1[C@@H]1O[C@@H]12 (stereo partly specified)", "inactive"),
    ("CCCc1nn(C)c2c(=O)[nH]c(-c3cc(S(=O)(=O)N4CCN(C)CC4)ccc3OCC)nc12", "inactive"),
    ("CCN[C@@H]1C[C@H](N)[C@@H](OC2OC(CN)=CCC2N)[C@H](O)[C@H]1O[C@H]1OC[C@](C)(O)[C@H](NC)[C@H]1O (stereo partly specified)", "6.99% [at 0.29 µM] (inactive)"),
    ("O=C(CO)[C@@H](O)[C@H](O)[C@@H](O)CO", "inactive"),
    ("CCCCCCCCCCOc1cc2c(=O)c(C(=O)OCC)c[nH]c2cc1OCC", "2.15% [at 6.97 µM] (inactive)"),
]

Param item = "CC(C)CCCO" ; retrieve measured activity change. inactive

Param item = CC(=O)C1CCCCC1=O (stereo unspecified) ; retrieve measured activity change. inactive

Param item = CCOC(=O)OC(C)OC1=C(C(=O)Nc2ccccn2)N(C)S(=O)(=O)c2ccccc21 (stereo unspecified) ; retrieve measured activity change. inactive

Param item = "Cc1ccc(C(=O)c2ccc(CC(=O)O)n2C)cc1" ; retrieve measured activity change. inactive

Param item = "CN(C)C(=O)Oc1ccc[n+](C)c1" ; retrieve measured activity change. inactive

Param item = "NC(=O)N[C@@H](CCC(=O)O)C(=O)O" ; retrieve measured activity change. inactive

Param item = "CC(C)C(=O)OC(=O)C(C)C" ; retrieve measured activity change. inactive

Param item = CCCCCC(C)N (stereo unspecified) ; retrieve measured activity change. inactive

Param item = "CCCCOC(=O)CCC(C)=O" ; retrieve measured activity change. inactive

Param item = "CN1CCC(=C2c3ccccc3CCc3cccnc32)CC1" ; retrieve measured activity change. inactive

Param item = "NO" ; retrieve measured activity change. inactive

Param item = "COc1ccc2cc1Oc1cc3c(cc1OC)CC[N+](C)(C)[C@H]3Cc1ccc(cc1)Oc1c(OC)c(OC)cc3c1[C@@H](C2)[N+](C)(C)CC3" ; retrieve measured activity change. inactive

* * *

Biological target: Nuclear receptor subfamily 1 group I member 3 (Homo sapiens)
Experiment: qHTS assay to identify small molecule antagonists of the constitutive androstane receptor (CAR) signaling pathway (AID 1224838);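 further: HepG2 cells stably expressing hCAR with CYP2B6 luciferase reporter stimulated by CITCO; on the % scale 0 is the no-effect control and ±100 the full control effect; nearly all actives have a fitted effect of over 40% in size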
Details: HepG2-CYP2B6-hCAR luciferase, CITCO-stimulated, 24 h; series mostly up to 92.4 µM
Excerpt: U.S. Tox21 Program National Center for Advancing Translational Sciences [NCATS] NIH Chemical Genomics Center [NCGC] U.S. Environmental Protection Agency [EPA] National Institutes of Environmental Health Sciences [NIEHS] National Toxicology Program [NTP] U.S. Food and Drug Administration [FDA] […] Tox21 Assay Protocol Summary: A double-stable (hCAR and CYP2B6-2.2kb) transfected cell line, derived from human hepatoma (HepG2) cells, was utilized for the duration of the quantitative high-throughput screens. […]
Results filed as inconclusive are left out. The source made the active and inactive calls. Calls come from the whole dose curve; as a rule, active = well fitted inhibition curve with a large enough effect in the repeat runs; inconclusive = weak or mixed curves, or effect the other way; inactive = no such curve, though single readings can be large or run the other way.
assay_readout: activity, negative = inhibition

# compound, activity, negative = inhibition
measured = [
    ("CNC(=O)Nc1ccc(Cl)c(Cl)c1", "inactive"),
    ("CCCCN1C=CN(C)C1", "14.7% [at 19 µM] (inactive)"),
    ("O=C(O)CCCC[P+](c1ccccc1)(c1ccccc1)c1ccccc1", "inactive"),
    ("CCCCCCC1CCC(=O)O1 (stereo unspecified)", "inactive"),
]

Value wanted: activity, negative = inhibition (Nuclear receptor subfamily 1 group I member 3 (Homo sapiens)) of entry CC(C(=O)O)c1cccc(Oc2ccccc2)c1 (stereo unspecified) inactive

Value wanted: activity, negative = inhibition (Nuclear receptor subfamily 1 group I member 3 (Homo sapiens)) of entry CC(COc1ccccc1)NN (stereo unspecified) inactive

Value wanted: activity, negative = inhibition (Nuclear receptor subfamily 1 group I member 3 (Homo sapiens)) of entry "C[C@@H]1C[C@H]2[C@@H]3C[C@H](F)C4=CC(=O)C(Cl)=C[C@]4(C)[C@@]3(F)[C@@H](O)C[C@]2(C)[C@@]1(O)C(=O)CO" inactive

Value wanted: activity, negative = inhibition (Nuclear receptor subfamily 1 group I member 3 (Homo sapiens)) of entry "[K+]" inactive

Value wanted: activity, negative = inhibition (Nuclear receptor subfamily 1 group I member 3 (Homo sapiens)) of entry "CC(C)c1ccc2ncccc2c1" inactive

Value wanted: activity, negative = inhibition (Nuclear receptor subfamily 1 group I member 3 (Homo sapiens)) of entry "CN(C)CCN(C)CCN(C)C" inactive

Value wanted: activity, negative = inhibition (Nuclear receptor subfamily 1 group I member 3 (Homo sapiens)) of entry "COc1cc(-c2ccc(=O)[nH]n2)ccc1OC(F)F" inactive

* * *

assay: qHTS assay to identify small molecule antagonists of the TGF-beta/Smad signaling pathway - cell viability counter screen (AID 1346824); conditions: SBE-bla HEK293T viability, CellTiter-Glo luminescence; series mostly up to 76.8 µM; further: on the % scale 0 is the no-effect control and ±100 the full control effect; nearly all actives have a fitted effect of over 50% in size
Inconclusive results are not listed. Active and inactive are the calls of the source. Calls follow the shape of the dose curve; as a rule, active = well fitted cell-killing curve with a large enough effect in the repeat runs; inconclusive = weak or mixed curves; inactive = flat fitted curve, though single readings scatter.
assay_readout: viability change, negative = cytotoxic

Observe how each entry below is paired with its result.
# molecule, viability change, negative = cytotoxic
data = [
    ("O=[N+]([O-])c1ccc(/C=N\\O)o1", "inactive"),
    ("C=C(C)C(=O)OCCOCCOCCOCCOC(=O)C(=C)C", "inactive"),
    ("CC(COc1ccccc1)NN (configuration not stated)", "inactive"),
    ("CC1=C(C/C=C(\\C)CCC[C@H](C)CCC[C@H](C)CCCC(C)C)C(=O)c2ccccc2C1=O", "inactive"),
    ("NC(=O)N1c2ccccc2CC(=O)c2ccccc21", "inactive"),
]

Param item = "Cc1nc(C2CCCCC2)c(-c2ccc(S(N)(=O)=O)c(F)c2)o1" ; retrieve measured viability change, negative = cytotoxic. inactive

Param item = "Nc1c2c(nc3c1CCC3)CCCC2" ; retrieve measured viability change, negative = cytotoxic. inactive

* * *

assay: qHTS assay to identify small molecule agonists of the constitutive androstane receptor (CAR) signaling pathway - cell viability counter screen (AID 1224836); conditions: HepG2-CYP2B6-hCAR viability, CellTiter-Fluor, 23 h, PK11195 added to every well; series mostly up to 92.4 µM; further: on the % scale 0 is the no-effect control and ±100 the full control effect; nearly all actives have a fitted effect of over 45% in size
Inconclusive results are not listed. The source made the active and inactive calls. Calls come from the whole dose curve; as a rule, active = well fitted cell-killing curve with a large enough effect in the repeat runs; inconclusive = weak or mixed curves, or effect the other way; inactive = flat fitted curve, though single readings scatter.
assay_readout: viability change, negative = cytotoxic

Observe how each entry below is paired with its result.
# compound, assay_readout, reading
rows = [
    ("[O-][n+]1cccc(CO)c1", "viability change, negative = cytotoxic", "inactive"),
    ("Nc1ccn([C@@H]2O[C@H](CO)[C@@H](O)C2(F)F)c(=O)n1", "viability change, negative = cytotoxic", "inactive"),
    ("CN1CCN(c2cc3c(nn2)Oc2ccccc2N3C)CC1", "viability change, negative = cytotoxic", "-2.12% [at 19 µM] (inactive)"),
    ("CC(C#N)(CCC(=O)O)N=NC(C)(C#N)CCC(=O)O (configuration not stated)", "viability change, negative = cytotoxic", "inactive"),
    ("CN(C)CCN(C)CCN(C)C", "viability change, negative = cytotoxic", "inactive"),
]

Param item = "CCCCCCCCCC[N+](C)(C)[O-]" ; retrieve measured viability change, negative = cytotoxic. inactive

Param item = C=COCC1CCC(COC=C)CC1 (configuration not stated) ; retrieve measured viability change, negative = cytotoxic. inactive

Param item = Nc1ccn([C@@H]2O[C@H](CO)[C@@H](O)C2O)c(=O)n1 (some centres not stated) ; retrieve measured viability change, negative = cytotoxic. inactive

Param item = "CC1=NS(=O)(=O)c2cc(Cl)ccc2N1" ; retrieve measured viability change, negative = cytotoxic. inactive
